Kindly supply the reported CC50 values for the records listed here.
System: HCC 2998
Assay: Anticancer activity against human HCC2998 cells after 48 hrs by sulforhodamine B assay
Format: functional
Conditions: Homo sapiens, HCC 2998, 48 h; read-out: LC50 (the source's name)
Give bare numbers, in µM.

[[record]]
query_smiles = "CCCCCCCCCCCCCCCC[n+]1ccn(C)c1.[Cl-]"
system_tested = "HCC 2998"
readout_name = "CC50"
test_result = 7.29

[[record]]
query_smiles = "CCCCCCCCCCCCCCCCCC[n+]1ccn(C)c1.[Cl-]"
system_tested = "HCC 2998"
readout_name = "CC50"
test_result = 7.77

[[record]]
query_smiles = "CCCCCCCCCCCCCCCCCC[n+]1ccn(C)c1.FC(F)(F)C(F)(F)[P-](F)(F)(F)(C(F)(F)C(F)(F)F)C(F)(F)C(F)(F)F"
system_tested = "HCC 2998"
readout_name = "CC50"
test_result = 25.5


Next molecule, please.
Query: Respond only with CC50 recorded for `CCCCCCCCCCCCCCCCCC[n+]1ccn(C)c1.O=S(=O)([N-]S(=O)(=O)C(F)(F)F)C(F)(F)F`
Result: 9.07

###

Tested on: COLO 205
Assay: Anticancer activity against human COLO205 cells after 48 hrs by sulforhodamine B assay
Type: functional
Conditions: Homo sapiens, COLO 205, 48 h
READOUT NAME: GI50 (nM)
Answers are plain numbers, in nM.

Look over these answered cases.
[[record]]
query_smiles = "CCCCCCCCCCCCCCCCCC[n+]1ccn(C)c1.FC(F)(F)C(F)(F)[P-](F)(F)(F)(C(F)(F)C(F)(F)F)C(F)(F)C(F)(F)F"
readout_name = "GI50"
unit_symbol = "nM"
test_result = 196

[[record]]
query_smiles = "CCCCCCCCCCCCCCCCCC[n+]1ccn(C)c1.O=S(=O)([N-]S(=O)(=O)C(F)(F)F)C(F)(F)F"
readout_name = "GI50"
unit_symbol = "nM"
test_result = 350

[[record]]
query_smiles = "CCCCCCCCCCCCCCCCCC[n+]1ccn(C)c1.[Cl-]"
readout_name = "GI50"
unit_symbol = "nM"
test_result = 285

[[record]]
query_smiles = "CCCCCCCCCCCCCCCC[n+]1ccn(C)c1.[Cl-]"
readout_name = "GI50"
unit_symbol = "nM"
test_result = 343


Next compound, please.
Query: Respond only with GI50 recorded for `CCCCCCCCCCCC[n+]1ccn(C)c1.[Cl-]`
Result: 2620

###

Tested on: MDA-MB-231
Experiment: Anticancer activity against human MDA-MB-231 cells assessed cell growth at 10 uM after 48 hrs by sulforhodamine B assay relative to control
Assay type: functional
READOUT NAME: Activity (%)
Give bare numbers, in %.

[[record]]
query_smiles = "CCCCCCCCCCCCCCCC[n+]1ccn(C)c1.[Cl-]"
system_tested = "MDA-MB-231"
test_result = -93.87

[[record]]
query_smiles = "Cn1cc[n+](CCO)c1.O=S(=O)([N-]S(=O)(=O)C(F)(F)F)C(F)(F)F"
system_tested = "MDA-MB-231"
test_result = 104.59

[[record]]
query_smiles = "COCC[n+]1ccn(C)c1.O=S(=O)([N-]S(=O)(=O)C(F)(F)F)C(F)(F)F"
system_tested = "MDA-MB-231"
test_result = 120.14


For each of the compounds below, note its Activity.
1. CCCCCCCC[n+]1ccn(C)c1.F[P-](F)(F)(F)(F)F
2. CCCCCCCCCCCCCCCCCC[n+]1ccn(C)c1.O=S(=O)([N-]S(=O)(=O)C(F)(F)F)C(F)(F)F
3. CCCCCC[n+]1ccn(C)c1.O=S(=O)([N-]S(=O)(=O)C(F)(F)F)C(F)(F)F

Result:
[65.53, -80.16, 86.26]

###

Test system: NCI-H460
Test: Anticancer activity against human NCI-H460 cells after 48 hrs by sulforhodamine B assay
Assay type: functional
Conditions: Homo sapiens, NCI-H460, 48 h
Param label: returns Condition met when GI50 < 0.7 µM, returns Condition not met otherwise, including exact equality.

Solved cases (3 shown):
[[record]]
query_smiles = "CCCCCCCCCCCCCCCCCC[n+]1ccn(C)c1.[Cl-]"
discrete_label = "Condition met"

[[record]]
query_smiles = "CCCCCCCCCCCCCCCC[n+]1ccn(C)c1.[Cl-]"
discrete_label = "Condition met"

[[record]]
query_smiles = "CCCCCCCCCCCC[n+]1ccn(C)c1.[Cl-]"
discrete_label = "Condition not met"


Query: Identify whether the compound `CCCCCCCCCCCCCCCCCC[n+]1ccn(C)c1.FC(F)(F)C(F)(F)[P-](F)(F)(F)(C(F)(F)C(F)(F)F)C(F)(F)C(F)(F)F` records GI50 below 0.7 µM.
Result: Condition met

Query: Identify whether the compound `CCCCCCCCCCCCCCCCCC[n+]1ccn(C)c1.O=S(=O)([N-]S(=O)(=O)C(F)(F)F)C(F)(F)F` records GI50 below 0.7 µM.
Result: Condition met

###

Kindly supply the reported CC50 values for the records listed here.
Tested on: T47D
Assay: Anticancer activity against human T47D cells after 48 hrs by sulforhodamine B assay
Assay type: functional
Conditions: Homo sapiens, T47D, 48 h; read-out: LC50 (the source's name)

[[record]]
query_smiles = "CCCCCCCCCCCCCCCCCC[n+]1ccn(C)c1.O=S(=O)([N-]S(=O)(=O)C(F)(F)F)C(F)(F)F"
test_result = "> 100 µM"

[[record]]
query_smiles = "CCCCCCCCCCCCCCCCCC[n+]1ccn(C)c1.FC(F)(F)C(F)(F)[P-](F)(F)(F)(C(F)(F)C(F)(F)F)C(F)(F)C(F)(F)F"
test_result = "63.7 µM"

[[record]]
query_smiles = "CCCCCCCCCCCCCCCC[n+]1ccn(C)c1.[Cl-]"
test_result = "> 100 µM"

[[record]]
query_smiles = "CCCCCCCCCCCCCCCCCC[n+]1ccn(C)c1.[Cl-]"
test_result = "> 100 µM"


Next molecule, please.
Query: Respond only with CC50 recorded for `CCCCCCCCCCCC[n+]1ccn(C)c1.[Cl-]`
Result: > 100 µM

###

System: RXF 393
Assay: Anticancer activity against human RXF393 cells assessed cell growth at 10 uM after 48 hrs by sulforhodamine B assay relative to control
Format: functional
Kindly supply the reported Activity values for the records listed here.
Numbers only, in %.

[[record]]
query_smiles = "CCCCCCCC[n+]1ccn(C)c1.F[P-](F)(F)(F)(F)F"
test_result = 83.22


For each of the molecules below, note its Activity.
1. CCCCCCCCCCCC[n+]1ccn(C)c1.F[B-](F)(F)F
2. CCCCCCCCCCCCCCCCCC[n+]1ccn(C)c1.[Cl-]
3. CCCCCCCCCCCCCCCCCC[n+]1ccn(C)c1.O=S(=O)([N-]S(=O)(=O)C(F)(F)F)C(F)(F)F
4. CCCCCCCCCCCC[n+]1ccn(C)c1.[Cl-]
5. CCCCCCCCOS(=O)(=O)[O-].CCCCCCCC[n+]1ccn(C)c1
6. Cn1cc[n+](CCO)c1.O=S(=O)([N-]S(=O)(=O)C(F)(F)F)C(F)(F)F
7. CCCCCC[n+]1ccn(C)c1.FC(F)(F)C(F)(F)[P-](F)(F)(F)(C(F)(F)C(F)(F)F)C(F)(F)C(F)(F)F
8. CCCCCCCCCCCCCCCC[n+]1ccn(C)c1.[Cl-]

Result:
1. 22.19
2. -28.27
3. -62.07
4. -20.81
5. 84
6. 95.99
7. 92.19
8. -66.19

For each of the molecules below, note its Activity.
1. CCCCCCCCCCCCCCCCCC[n+]1ccn(C)c1.FC(F)(F)C(F)(F)[P-](F)(F)(F)(C(F)(F)C(F)(F)F)C(F)(F)C(F)(F)F
2. CCCCCCCC[n+]1ccn(C)c1.F[B-](F)(F)F
3. CCCCCCCC[n+]1ccn(C)c1.[Cl-]
4. CCCCCCCCCCCCCCCCCC[n+]1ccn(C)c1.F[P-](F)(F)(F)(F)F
5. COCC[n+]1ccn(C)c1.O=S(=O)([N-]S(=O)(=O)C(F)(F)F)C(F)(F)F
6. CCCCCC[n+]1ccn(C)c1.O=S(=O)([N-]S(=O)(=O)C(F)(F)F)C(F)(F)F

Result:
1: -44.46; 2: 104.98; 3: 78.03; 4: -52.84; 5: 103.9; 6: 103.51

Query: Respond only with Activity recorded for `Cn1cc[n+](Cc2ccccc2)c1.F[P-](F)(F)(F)(F)F`
Result: 102.92

###

Test system: UACC-257
Test: Anticancer activity against human UACC257 cells assessed cell growth at 10 uM after 48 hrs by sulforhodamine B assay relative to control
Format: functional
READOUT NAME: Activity (%)
Numbers only, in %.

Look over these answered cases.
[[record]]
query_smiles = "COCC[n+]1ccn(C)c1.O=S(=O)([N-]S(=O)(=O)C(F)(F)F)C(F)(F)F"
system_tested = "UACC-257"
test_result = 100.25

[[record]]
query_smiles = "CCCCCCCC[n+]1ccn(C)c1.[Cl-]"
system_tested = "UACC-257"
test_result = 83.24

[[record]]
query_smiles = "CCCCCC[n+]1ccn(C)c1.O=S(=O)([N-]S(=O)(=O)C(F)(F)F)C(F)(F)F"
system_tested = "UACC-257"
test_result = 87.47

[[record]]
query_smiles = "CCCCCCCCCCCCCCCCCC[n+]1ccn(C)c1.F[P-](F)(F)(F)(F)F"
system_tested = "UACC-257"
test_result = -62.12

[[record]]
query_smiles = "CCCCCCCC[n+]1ccn(C)c1.F[P-](F)(F)(F)(F)F"
system_tested = "UACC-257"
test_result = 72.49


For each of the compounds below, note its Activity.
1. CCCCCCCCCCCC[n+]1ccn(C)c1.[Cl-]
2. CCCCCCCCCCCCCCCC[n+]1ccn(C)c1.[Cl-]

Result:
1. -12.38
2. -61.13
